Just for reference, ChEMBL document CHEMBL4033732 is where these values come from.

# subject of test: UniProt:P10635
# Sequence (P10635 whole entry): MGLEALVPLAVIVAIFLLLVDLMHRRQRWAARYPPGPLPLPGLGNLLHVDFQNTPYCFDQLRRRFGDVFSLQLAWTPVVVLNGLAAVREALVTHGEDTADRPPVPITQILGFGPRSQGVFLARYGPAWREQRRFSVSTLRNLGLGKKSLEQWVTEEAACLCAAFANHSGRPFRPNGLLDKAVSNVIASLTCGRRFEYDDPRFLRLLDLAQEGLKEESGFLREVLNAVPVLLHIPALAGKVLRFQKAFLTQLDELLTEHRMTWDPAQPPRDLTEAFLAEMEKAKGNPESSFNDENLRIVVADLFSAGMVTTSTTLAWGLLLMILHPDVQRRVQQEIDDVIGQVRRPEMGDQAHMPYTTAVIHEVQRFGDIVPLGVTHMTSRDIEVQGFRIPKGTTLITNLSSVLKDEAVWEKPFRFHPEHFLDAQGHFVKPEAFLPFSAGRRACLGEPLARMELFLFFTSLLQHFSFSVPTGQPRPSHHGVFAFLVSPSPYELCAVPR
# measurement protocol: Inhibition of CYP2D6 in human liver microsomes at 10 uM
# Type: ADME
Each entry below lists one item and its recorded inhibition at 10 µM value.
reported metric: inhibition at 10 µM (%)

[[record]]
compound = "O=C(c1cc2n(n1)CCCN(Cc1ccc(Cl)c(Cl)c1)C2=O)N1CCCCC1"
subject_of_test = "UniProt:P10635"
readout_units = "%"
experimental_result = 0

[[record]]
compound = "CC(C)(C)c1ccc(CN2CCn3nc(C(=O)N4CCCCC4)cc3C2=O)cc1"
subject_of_test = "UniProt:P10635"
readout_units = "%"
experimental_result = 0

[[record]]
compound = "CC(C)(C)c1ccc(CN2CC(O)n3nc(C(=O)N4CCCCC4)cc3C2=O)cc1 (stereo not given)"
subject_of_test = "UniProt:P10635"
readout_units = "%"
experimental_result = 48

[[record]]
compound = "O=C(c1cc2c(=O)n(Cc3ccc(Cl)c(Cl)c3)ccn2n1)N1CCCCC1"
subject_of_test = "UniProt:P10635"
readout_units = "%"
experimental_result = 30

[[record]]
compound = "CC(C)(C)c1ccc(Cn2ccn3cc(C(=O)N4CCCCC4)nc3c2=O)cc1"
subject_of_test = "UniProt:P10635"
readout_units = "%"
experimental_result = 6

